tested on: morningglory; assay: Test B pre-/postemergence herbicide test; type: in vivo, Ipomoea coccinea; conditions: postemergence, 125 g ai/ha; visual rating, scale 0 (no effect) to 100 (complete control)
# Morningglory plant response rating listing for each entry below
Just the number, please, no unit attached.

INSERT INTO measurements (compound, system_name, value) VALUES
  ('C#CCN(C)C(=O)c1ccnc(NC(=O)c2cc(C(C)(C)C)nn2CC)c1 [Compound 160]', 'morningglory', 0),
  ('CCn1nc(C(C)(C)C)cc1C(=O)Nc1cccc(S(C)(=O)=O)c1 [Compound 133]', 'morningglory', 10),
  ('CCn1nc(C(C)(C)C)cc1C(=O)Nc1cc(C#N)ccc1F [Compound 140]', 'morningglory', 0),
  ('CCc1nn(C(C)(C)C)cc1C(=O)Nc1cccc(C(C)=NO)c1 [Compound 188]', 'morningglory', 20);

Then this compound:
CCNC(=O)c1cc(C)nc(NC(=O)c2cc(C(C)(C)C)nn2CC)c1 [Compound 149] on morningglory gives Morningglory plant response rating = 20
